- Test system: P RNA
- test_name: Gel-based activity assay, bipartite pre-tRNA substrate, P RNA alone
- Assay type: biochemical, T. maritima
- reported_conditions: 100 mM AmOAc, 10 mM MgCl2
assay_readout: Inhibition of the P RNA reaction

O=C1C=C2CC3(O)COc4c(ccc(O)c4O)C3=C2C=C1O (stereo not shown): not the P RNA alone
O=C1c2ccccc2C(=O)c2c(O)c(O)cc(O)c21 [Purpurin, 1,2,4-trihydroxyanthraquinone]: not the P RNA alone

* * *

- assay_system: RNase P holoenzyme (Thermotoga maritima)
- Construct: GST (cleaved yes)
- Sequence (Q9X1H4 1-117): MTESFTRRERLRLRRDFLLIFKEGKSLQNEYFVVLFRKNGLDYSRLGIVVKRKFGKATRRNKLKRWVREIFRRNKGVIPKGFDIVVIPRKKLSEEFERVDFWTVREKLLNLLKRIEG
- test_name: Biolayer interferometry binding to immobilized RNase P holoenzyme
- reported_conditions: BLI, holoenzyme at 400 nM immobilized on Ni-NTA
assay_readout: pKd
// pKd is dimensionless: -log10 of concentration (M)

Identify measured pKd associated with O=C1c2ccccc2C(=O)c2c(O)c(O)cc(O)c21 [Purpurin, 1,2,4-trihydroxyanthraquinone]
4.88

* * *

- assay_system: RNase P holoenzyme from Thermotoga maritima (Thermotoga maritima, UniProt Q9X1H4)
- Construct: made in house
- test_name: Real-time fluorescence-based (FRET) RNase P activity assay with minihelix (Mh) substrate
- Type: biochemical
- reported_conditions: fluorescent Mh substrate 270 nM, holoenzyme 33 nM, 10% DMSO, 37°C, 400 mM AmOAc, 100 mM MgCl2
- Experimental: The reconstitution of the RNase P holoenzyme was performed as described in ([40],[19]). […] Reactions were performed in a total volume of 20 μl. […] Kinetic activity was monitored in a Synergy MX Multimode Detector (BioTek) at 37°C with rapid agitation. At least 20 readings were taken per well every 15 s. The probe was excited at 485 nm, and its emission was monitored at 535 nm with an integration time of 1 s. […] presented in this work were either measured in triplicate or confirmed in subsequent assays. […]
Criterion: IC50 strictly less than 10 µM. Met: True. Not met: False.

is_below(IC50, 10 µM) for O=C1C=C2CC3(O)COc4c(ccc(O)c4O)C3=C2C=C1O (centres unmarked) [Hematein] ?
True

Record O=C1C=CC(=O)c2c(O)cccc21 [Juglone, 5-hydroxy-1,4-naphthoquinone] : is its IC50 strictly below 10 µM?
False

Strictly below 10 µM: is that where IC50 of CC(=O)Oc1cc(-c2coc3cc(OC(C)=O)c(OC(C)=O)c(OC(C)=O)c3c2=O)cc(OC(C)=O)c1OC(C)=O [iriginol hexaacetate, reference compound] sits?
False

Criterion: IC50 strictly below 10 µM. Is it met by CN(C)c1ccc(C(=C2C=CC(=[N+](C)C)C=C2)c2ccc(N(C)C)cc2)cc1 [Gentian violet, reference compound] ?
True

IC50 strictly < 10 µM for this compound? O=C1c2ccccc2C(=O)c2c(O)c(O)cc(O)c21 [Purpurin, 1,2,4-trihydroxyanthraquinone]
False

* * *

- assay_system: P protein from T. maritima (Thermotoga maritima)
assay_readout: Kd

Output Kd of O=C1c2ccccc2C(=O)c2c(O)c(O)cc(O)c21 [Purpurin, 1,2,4-trihydroxyanthraquinone]
6.8 µM

Hello, the source for this data is paper PMC6614837, in case you need it.
